- experimentalTarget: T1, human IL-2Rβ (human, UniProt P14784 27-240, limits assumed)
- T1 construct: also called hIL-2Rβ; IL-2 receptor beta
- T1 sequence (looked up): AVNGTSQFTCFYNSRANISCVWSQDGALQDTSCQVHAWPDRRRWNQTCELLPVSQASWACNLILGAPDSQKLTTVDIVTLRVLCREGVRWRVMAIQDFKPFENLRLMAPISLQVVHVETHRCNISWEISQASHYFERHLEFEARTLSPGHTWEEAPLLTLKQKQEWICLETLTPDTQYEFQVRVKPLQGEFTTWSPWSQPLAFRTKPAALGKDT
- experimentNotes: SPR, steady state
property: Kd

hIL-15 V49R/S7D (ligand) NWVNVIDDLKKIEDLIQSMHIDATLYTESDVHPSCKVTAMKCFLLELQRISLESGDASIHDTVENLIILANNSLSSNGNVTESGCKECEELEEKNIKEFLQSFVHIVQMFINTGGGGSGHHHHHHHHGGGLNDIFEAQKIEWHE | > 500 nM
hIL-15 V49R/Q108D (ligand) NWVNVISDLKKIEDLIQSMHIDATLYTESDVHPSCKVTAMKCFLLELQRISLESGDASIHDTVENLIILANNSLSSNGNVTESGCKECEELEEKNIKEFLQSFVHIVDMFINTGGGGSGHHHHHHHHGGGLNDIFEAQKIEWHE | 215 nM
hIL-15 V49R/D30T (ligand) NWVNVISDLKKIEDLIQSMHIDATLYTESTVHPSCKVTAMKCFLLELQRISLESGDASIHDTVENLIILANNSLSSNGNVTESGCKECEELEEKNIKEFLQSFVHIVQMFINTGGGGSGHHHHHHHHGGGLNDIFEAQKIEWHE | 269 nM

Exam item: Please report the recorded Kd for hIL-15 V49R/H32I (ligand) NWVNVISDLKKIEDLIQSMHIDATLYTESDVIPSCKVTAMKCFLLELQRISLESGDASIHDTVENLIILANNSLSSNGNVTESGCKECEELEEKNIKEFLQSFVHIVQMFINTGGGGSGHHHHHHHHGGGLNDIFEAQKIEWHE .
Marked response: 110 nM

The measured values listed here are drawn from patent US20210324028A1.
